Test system: L929 mouse fibroblasts (DSMZ ACC 2)
Experiment: Growth inhibition assay (MTT), L929
Conditions: Mus musculus, L929, 120 h, read-out: IC50 L929
# T = IC50 below 2 ng/mL (exclusive); F = IC50 at/above 2 ng/mL

Check out these entries, answers already filled in.
Confirm or reject: IC50 of CC[C@H](C)[C@H](NC(=O)[C@H]1CCCCN1C)C(=O)N(COC(=O)CC(C)C)[C@H](C[C@@H](OC(C)=O)c1nc(C(=O)NCCCC(=O)O)cs1)C(C)C [Analogue 3] lies strictly below 2 ng/mL
F

Confirm or reject: IC50 of CC[C@H](C)[C@H](NC(=O)[C@H]1CCCCN1C)C(=O)N(COC(=O)CC(C)C)[C@H](C[C@@H](OC(C)=O)c1nc(C(=O)NC)cs1)C(C)C [Analogue 4] lies strictly below 2 ng/mL
T

Confirm or reject: IC50 of CC[C@H](C)[C@H](NC(=O)[C@H]1CCCCN1C)C(=O)N(COC(=O)CC(C)C)[C@H](C[C@@H](OC(C)=O)c1nc(C(=O)O)cs1)C(C)C [Analogue 5] lies strictly below 2 ng/mL
F

Confirm or reject: IC50 of CC[C@H](C)[C@H](NC(=O)[C@H]1CCCCN1C)C(=O)N(COC(=O)CC(C)C)[C@H](C[C@@H](OC(C)=O)c1nc(C(=O)NCCc2ccccc2)cs1)C(C)C [Analogue 2] lies strictly below 2 ng/mL
T

Confirm or reject: IC50 of CC[C@H](C)[C@H](NC(=O)CN(C)C)C(=O)N(COC(=O)CC(C)C)[C@H](C[C@@H](OC(C)=O)c1nc(C(=O)N[C@@H](Cc2ccccc2)C[C@H](C)C(=O)O)cs1)C(C)C [Analogue 6] lies strictly below 2 ng/mL
T

Others:
Confirm or reject: IC50 of CC[C@H](C)[C@H](NC(=O)[C@H]1CCCCN1C)C(=O)N(C)[C@H](C[C@@H](OC(C)=O)c1nc(C(=O)N[C@@H](Cc2ccccc2)C[C@H](C)C(=O)O)cs1)C(C)C (stereo in doubt) [Analogue 10] lies strictly below 2 ng/mL
T

Confirm or reject: IC50 of CC[C@H](C)[C@H](NC(=O)[C@H]1CCCCN1C)C(=O)N(COC(=O)CC(C)C)[C@H](C[C@@H](OC(C)=O)c1nc(C(=O)N[C@@H](Cc2ccccc2)C[C@H](C)C(=O)O)cs1)C(C)C [Analogue 1, Tubulysin D, reference compound] lies strictly below 2 ng/mL
T

Confirm or reject: IC50 of CC[C@H](C)[C@H](NC(=O)[C@H]1CCCCN1C)C(=O)N(C)[C@H](C[C@@H](OC(C)=O)c1nc(C(=O)NC)cs1)C(C)C (stereo in doubt) [Analogue 11] lies strictly below 2 ng/mL
T

Confirm or reject: IC50 of CC[C@H](C)[C@H](N=[N+]=[N-])C(=O)N(COC(=O)CC(C)C)[C@H](C[C@@H](OC(C)=O)c1nc(C(=O)N[C@@H](Cc2ccccc2)C[C@H](C)C(=O)O)cs1)C(C)C [Analogue 8] lies strictly below 2 ng/mL
F

Confirm or reject: IC50 of CC[C@H](C)[C@H](NC(C)=O)C(=O)N(COC(=O)CC(C)C)[C@H](C[C@@H](OC(C)=O)c1nc(C(=O)N[C@@H](Cc2ccccc2)C[C@H](C)C(=O)O)cs1)C(C)C [Analogue 7] lies strictly below 2 ng/mL
F
